system: primary human hepatic stellate cells (donor 1); test: scaled lipid accumulation score (0 = DMSO-like, 1 = nortriptyline-like); higher = stronger HSC inactivation (lipid re-accumulation), active = hit call of the paper; conditions: library stock concentration: 2 mM; 48 h
The campaign covered roughly 5,800 compounds. About 620 (11%) showed activity.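 Rule for the calls: active = score above a cut-off or among the top three wells of a plate; in these data no inactive exceeds 0.85.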 This is one part of a sample in which actives are shown more often than they occur.
One label from this list, please: active, inactive

Worked examples follow.
MOLECULE: Cc1cccc(-c2[nH]c(CNc3ccccc3F)nc2-c2ccc3ncnn3c2)n1
CLASS: inactive

MOLECULE: CNCc1ccc(-c2[nH]c3cc(F)cc4c3c2CCNC4=O)cc1
CLASS: inactive

MOLECULE: COc1cc(N2CCC(N3CCN(C)CC3)CC2)ccc1Nc1ncc(Cl)c(-c2c[nH]c3ccccc23)n1
CLASS: active

MOLECULE: O=C1NC(=O)[C@@H](c2cn3c4c(cccc24)CCC3)[C@@H]1c1c[nH]c2ccccc12 [Tivantinib]
CLASS: inactive

Input line: Recorded test call requested for `COc1cc2ncnc(Nc3ccc(F)c(Cl)c3)c2cc1NC(=O)C=CCN1CCCCC1`
Output line: active

---

test system: primary human hepatic stellate cells (donor 1); experiment: scaled lipid accumulation score (0 = DMSO-like, 1 = nortriptyline-like); higher = stronger HSC inactivation (lipid re-accumulation), active = hit call of the paper; settings: library stock concentration: 10 mM; 48 h
Counter-ions that a name gives are not always drawn. Hit rate of the full screen: of about 5,800 compounds, about 620 (11%) showed activity.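 The calls were made as follows: active = score above a cut-off or among the top three wells of a plate; in these data no inactive exceeds 0.85.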 What follows is part of a selection rich in actives, with near analogues and random picks from the rest.
Outcomes you can answer with include only these: y = active, n = inactive

// below: answered compounds
COMPOUND: N=C(N)N [Guanidine HCl]
MEASUREMENT TARGET: primary human hepatic stellate cells (donor 1)
CLASS: n
--
COMPOUND: CC[C@]1(O)C[C@H]2CN(CCc3c([nH]c4ccccc34)[C@@](C(=O)OC)(c3cc4c(cc3OC)N(C)[C@H]3[C@@](O)(C(=O)OC)[C@H](OC(C)=O)[C@]5(CC)C=CCN6CC[C@]43[C@@H]65)C2)C1.O=S(=O)(O)O [Vinblastine sulfate]
MEASUREMENT TARGET: primary human hepatic stellate cells (donor 1)
CLASS: y
--
COMPOUND: C[N+](C)(C)CCO.[Br-] [Choline bromide]
MEASUREMENT TARGET: primary human hepatic stellate cells (donor 1)
CLASS: n

Input line: // param item: CC(N)(Cc1ccc(O)cc1)C(=O)O (racemic) ; yields the recorded call
Output line: n

Input line: Same question for `CC(C)(C)NS(=O)(=O)c1cncc(-c2cc(F)c3nc(N)nn3c2)c1` please.
Output line: n

Input line: Follow-up entry: `O=c1oc2c(O)c(O)cc3c(=O)oc4c(O)c(O)cc1c4c23`
Output line: n

Input line: Then this compound: `Nc1ccc2cn[nH]c2c1`
Output line: n

Input line: Same question for `CO[C@H]1C[C@@H]2CC[C@@H](C)[C@@](O)(O2)C(=O)C(=O)N2CCCC[C@H]2C(=O)O[C@H]([C@H](C)C[C@@H]2CC[C@@H](O)[C@H](OC)C2)CC(=O)[C@H](C)/C=C(\C)[C@@H](O)[C@@H](OC)C(=O)[C@H](C)C[C@H](C)/C=C/C=C/C=C/1C` please.
Output line: n

Input line: Then what about the compound CNCCC(Oc1ccc(C(F)(F)F)cc1)c1ccccc1.Cl (configuration not stated) ?
Output line: y

Input line: And what about the compound CCCCCCCCCCCCC[N+](C)(C)Cc1ccccc1 [Benzalkonium chloride] ?
Output line: n

Input line: Proceed to CC(Cc1ccccc1)(NC(=O)CN)c1ccccc1 (racemic)
Output line: y

Input line: Another compound to check: `O=C1NC(=O)c2cc(Nc3ccc(F)cc3)c(Nc3ccc(F)cc3)cc21`
Output line: n

---

Below is a list of entries, each paired with its recorded scaled lipid accumulation score value.
test system: primary human hepatic stellate cells (donor 1); assay: scaled lipid accumulation score (0 = DMSO-like, 1 = nortriptyline-like); higher = stronger HSC inactivation (lipid re-accumulation), active = hit call of the paper; details: library stock concentration: 10 mM; 48 h
Where a name gives a salt, the structure may show the parent alone. About 620 (11%) of roughly 5,800 compounds showed activity. This is one part of a sample in which actives are shown more often than they occur.

Solved cases (5 shown):
MOLECULE: CC(C)NC[C@H](O)COc1cccc2ccccc12 [(S)-(-)-Propranolol hydrochloride]
scaled lipid accumulation score: 0.518 (inactive)

MOLECULE: CC(C)NC[C@H](O)COc1cccc2ccccc12 [(S)-Propranolol hydrochloride]
scaled lipid accumulation score: 0.445 (inactive)

MOLECULE: c1ccc(CN(CC2=NCCN2)c2ccccc2)cc1 [Antazoline HCl]
scaled lipid accumulation score: 0.363 (inactive)

MOLECULE: COc1nc(C)cnc1NS(=O)(=O)c1cccnc1-c1ccc(-c2nnco2)cc1 [Zibotentan (ZD4054)]
scaled lipid accumulation score: ≤ 0 (inactive)

MOLECULE: NNC(=O)c1ccncc1.Nc1ccc(C(=O)O)c(O)c1 [Pasiniazid]
scaled lipid accumulation score: ≤ -0.027 (inactive)

Input line: Reported scaled lipid accumulation score for C[C@@H]1CC[C@@]2(OC1)O[C@H]1C[C@H]3[C@@H]4CC=C5C[C@@H](O)CC[C@]5(C)[C@H]4CC[C@]3(C)[C@H]1[C@@H]2C [Diosgenin] : what is it?
Output line: ≤ -0.027 (inactive)

Input line: What about this molecule? c1ccc(CN(CC2=NCCN2)c2ccccc2)cc1 [Antazoline hydrochloride]
Output line: 0.11 (inactive)

Input line: Same again, this time with `Cc1ncc(COP(=O)([O-])[O-])c(CN(CCN(CC(=O)O)Cc2c(COP(=O)([O-])O)cnc(C)c2O)CC(=O)O)c1O.[Mn].[Na+].[Na+].[Na+]`
Output line: 0.072 (inactive)

Input line: Next: COc1cc2c(cc1OC)[C@@H]1C(=O)c3ccc4c(c3O[C@@H]1CO2)C=CC(C)(C)O4 [Deguelin(-)]
Output line: ≤ 0 (inactive)

---

test system: primary human hepatic stellate cells (donor 1); experiment: scaled lipid accumulation score (0 = DMSO-like, 1 = nortriptyline-like); higher = stronger HSC inactivation (lipid re-accumulation), active = hit call of the paper; details: 48 h
Counter-ions that a name gives are not always drawn. Hit rate of the full screen: of about 5,800 compounds, about 620 (11%) showed activity.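 The calls were made as follows: active = score above a cut-off or among the top three wells of a plate; in these data no inactive exceeds 0.85.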 The entries come from a sample that favours actives as a whole.
Just give me one of these, please: true (1) = active, false (0) = inactive

Solved cases (4 shown):
COMPOUND: CCN(CC)Cc1cc(Nc2ccnc3cc(Cl)ccc23)ccc1O.Cl.Cl.O.O [Amodiaquin dihydrochloride dihydrate]
MEASUREMENT TARGET: primary human hepatic stellate cells (donor 1)
CLASS: true (1)

COMPOUND: CCN(CC)CCCC(C)Nc1ccnc2cc(Cl)ccc12 (configuration not stated) [Chloroquine diphosphate]
MEASUREMENT TARGET: primary human hepatic stellate cells (donor 1)
CLASS: false (0)

COMPOUND: CC(C)NCC(O)c1ccc2ccccc2c1 (configuration not stated) [Pronethalol hydrochloride]
MEASUREMENT TARGET: primary human hepatic stellate cells (donor 1)
CLASS: false (0)

COMPOUND: CN(C)CCOC(=O)COc1ccc(Cl)cc1 [Meclofenoxate hydrochloride]
MEASUREMENT TARGET: primary human hepatic stellate cells (donor 1)
CLASS: false (0)

Input line: Fill in: this test's call for CN1CCN(C(c2ccccc2)c2ccccc2)CC1 [Cyclizine hydrochloride] is ___
Output line: false (0)

Input line: Follow-up item: `O=C1CCc2cc(OCCCCc3nnnn3C3CCCCC3)ccc2N1`
Output line: false (0)

Input line: Repeat with CCOC(=O)C1=C(C)NC(C)=C(C(=O)OC)C1c1cccc(Cl)c1Cl (configuration not stated)
Output line: false (0)

---

test system: primary human hepatic stellate cells (donor 1); experiment: scaled lipid accumulation score (0 = DMSO-like, 1 = nortriptyline-like); higher = stronger HSC inactivation (lipid re-accumulation), active = hit call of the paper; conditions: library stock concentration: 1 mM; 48 h
Counter-ions that a name gives are not always drawn. In all, about 5,800 compounds went through this assay and about 620 (11%) showed activity. For the sample, actives were picked, then their nearest neighbours and some compounds at random.
List of scaled lipid accumulation score values.

Solved cases below.
MOLECULE: CCCCC[C@H](O)/C=C/[C@@H]1[C@@H](C/C=C/CCCC(=O)O)[C@@H](O)C[C@H]1O [5-trans Prostaglandin F2.alpha. (tromethamine salt)]
scaled lipid accumulation score: ≤ 0 (inactive)
//
MOLECULE: CCCCC/C=C\C/C=C\CCCCCCCC(=O)O [Linoleic acid]
scaled lipid accumulation score: ≤ -0.021 (inactive)
//
MOLECULE: CCCCC(C)(C)[C@H](O)/C=C/[C@H]1C=CC(=O)[C@@H]1CCCCCCC(=O)O
scaled lipid accumulation score: ≤ 0 (inactive)
//
MOLECULE: CCCCC[C@H](O)/C=C/[C@H]1C(=O)C[C@H](O)[C@@H]1CCCCCCC(=O)O [Prostaglandin D1]
scaled lipid accumulation score: 0.018 (inactive)

Next:
Input line: Recorded scaled lipid accumulation score of `CC(C)OC(=O)CCC/C=C\C[C@@H]1[C@@H](/C=C/[C@@H](O)CCc2ccccc2)[C@H](O)C[C@@H]1O` , please.
Output line: ≤ 0 (inactive)
